target desc: ALK (Homo sapiens)
method description: Biochemical ALK inhibition (ADP Hunter, radiometric, Z-lyte)
Set-up: purchased DiscoveRx (ADP Hunter kit); Upstate/Millipore; Invitrogen
study conditions: ADP Hunter, radiometric and Z-lyte assays; 100 or 200 μM ATP
Sequence (Q9UM73 19-1620): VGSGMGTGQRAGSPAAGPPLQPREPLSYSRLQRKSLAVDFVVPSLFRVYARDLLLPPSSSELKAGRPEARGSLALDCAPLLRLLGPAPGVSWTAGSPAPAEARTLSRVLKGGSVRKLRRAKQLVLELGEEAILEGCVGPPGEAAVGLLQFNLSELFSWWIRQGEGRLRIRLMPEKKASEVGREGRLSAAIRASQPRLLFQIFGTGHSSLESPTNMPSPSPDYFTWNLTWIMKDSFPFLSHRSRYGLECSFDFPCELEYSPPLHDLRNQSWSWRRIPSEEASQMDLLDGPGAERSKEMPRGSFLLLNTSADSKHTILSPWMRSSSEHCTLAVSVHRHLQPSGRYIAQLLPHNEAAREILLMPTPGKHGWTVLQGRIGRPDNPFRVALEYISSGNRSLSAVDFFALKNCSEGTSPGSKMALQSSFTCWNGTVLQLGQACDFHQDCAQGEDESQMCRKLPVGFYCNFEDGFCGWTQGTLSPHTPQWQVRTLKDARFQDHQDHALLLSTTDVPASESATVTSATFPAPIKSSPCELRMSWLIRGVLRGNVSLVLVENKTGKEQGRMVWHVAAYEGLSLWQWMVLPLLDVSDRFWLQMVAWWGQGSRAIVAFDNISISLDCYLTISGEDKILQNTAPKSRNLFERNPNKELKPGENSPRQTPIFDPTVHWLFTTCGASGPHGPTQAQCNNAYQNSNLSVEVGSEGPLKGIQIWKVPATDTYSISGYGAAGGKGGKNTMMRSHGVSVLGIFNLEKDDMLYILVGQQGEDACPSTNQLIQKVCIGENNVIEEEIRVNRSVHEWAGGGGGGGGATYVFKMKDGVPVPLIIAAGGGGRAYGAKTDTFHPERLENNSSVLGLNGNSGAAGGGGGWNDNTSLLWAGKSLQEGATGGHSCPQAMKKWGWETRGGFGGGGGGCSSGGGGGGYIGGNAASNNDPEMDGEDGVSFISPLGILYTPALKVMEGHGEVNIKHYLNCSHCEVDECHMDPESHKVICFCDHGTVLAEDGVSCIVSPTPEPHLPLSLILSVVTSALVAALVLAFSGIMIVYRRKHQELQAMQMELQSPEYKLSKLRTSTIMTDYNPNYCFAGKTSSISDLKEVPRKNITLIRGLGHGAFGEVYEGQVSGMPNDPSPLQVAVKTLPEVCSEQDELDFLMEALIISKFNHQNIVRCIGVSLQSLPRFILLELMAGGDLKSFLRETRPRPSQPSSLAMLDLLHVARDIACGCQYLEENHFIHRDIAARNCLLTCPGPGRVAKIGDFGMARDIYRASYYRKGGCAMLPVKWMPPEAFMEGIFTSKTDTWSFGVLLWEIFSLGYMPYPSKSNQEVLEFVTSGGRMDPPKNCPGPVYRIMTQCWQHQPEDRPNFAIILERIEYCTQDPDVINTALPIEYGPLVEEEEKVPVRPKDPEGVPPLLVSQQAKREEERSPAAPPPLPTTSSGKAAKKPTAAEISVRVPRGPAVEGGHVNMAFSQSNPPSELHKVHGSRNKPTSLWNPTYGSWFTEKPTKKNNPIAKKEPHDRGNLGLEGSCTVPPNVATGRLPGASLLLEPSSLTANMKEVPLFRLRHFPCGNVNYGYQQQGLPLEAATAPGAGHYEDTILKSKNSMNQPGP
experimental endpoint: IC50

Problem: Item `Cc1ccc(F)cc1C[C@H](C)Nc1cc[nH]c(=O)c1-c1nc2cc3c(cc2[nH]1)C(=O)N(CCN1CCCC1)C3` with ALK (Homo sapiens) - IC50?
Result: 9 to 11 nM

###

target desc: UniProtKB Q9UM73
method description: ALK kinase assay (Kinase-Glo / AlphaScreen, purified NPM-ALK);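 further: recombinant baculovirus-expressed ALK kinase domain, activity read either as leftover ATP by Kinase-Glo luminescence or as poly(Glu-Tyr) phosphorylation by anti-phosphotyrosine AlphaScreen proximity signal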
Type: biochemical
Design: fused to the complete intracytoplasmic portion of ALK containing the functional tyrosine kinase domain; 6xHis; made in house; host or cells: insect cells; the other entry of the earlier key: NPM1 (P06748, Nucleophosmin)
study conditions: Table 2; read-out: Enzymatic ALK IC50
Sequence (Q9UM73 with tags, fused parts or gaps): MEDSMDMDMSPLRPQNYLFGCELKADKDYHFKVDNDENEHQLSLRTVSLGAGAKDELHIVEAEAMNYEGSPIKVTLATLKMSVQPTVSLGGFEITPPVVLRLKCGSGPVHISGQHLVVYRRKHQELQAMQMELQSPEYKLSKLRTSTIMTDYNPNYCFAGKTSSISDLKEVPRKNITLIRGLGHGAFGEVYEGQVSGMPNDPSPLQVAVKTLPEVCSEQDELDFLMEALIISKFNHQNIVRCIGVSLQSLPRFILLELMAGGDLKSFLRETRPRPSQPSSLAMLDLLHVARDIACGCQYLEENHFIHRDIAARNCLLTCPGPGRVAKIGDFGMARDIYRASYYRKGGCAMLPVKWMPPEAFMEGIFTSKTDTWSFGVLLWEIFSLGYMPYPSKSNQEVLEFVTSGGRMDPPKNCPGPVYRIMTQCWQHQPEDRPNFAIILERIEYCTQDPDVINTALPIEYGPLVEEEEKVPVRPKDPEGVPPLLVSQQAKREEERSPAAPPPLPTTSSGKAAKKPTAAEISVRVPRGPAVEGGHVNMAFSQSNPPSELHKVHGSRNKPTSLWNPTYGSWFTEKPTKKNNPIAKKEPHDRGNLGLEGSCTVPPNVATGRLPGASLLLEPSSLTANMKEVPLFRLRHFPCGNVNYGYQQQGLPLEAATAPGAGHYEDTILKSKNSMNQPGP
pIC50: −log10 of the molar value.
experimental endpoint: pIC50

> print(dat)
                                   compound       target.desc  experimental.endpoint  measured
1  CNCCN1Cc2cc3[nH]c(-c4c(N[C@@H](C)Cc5cc(F)ccc5C)cc[nH]c4=O)nc3cc2C1=O [drawing 355]  UniProtKB Q9UM73                  pIC50    > 8.00

Provide pIC50 for all items below, preserving their order.
1. C[C@@H](Cc1cc(F)cc(F)c1F)Nc1cc[nH]c(=O)c1-c1nc2cc3c(cc2[nH]1)CN(CCN1CCCC1)C3=O [drawing 358]
2. Cc1ccc(F)cc1C[C@H](C)Nc1cc[nH]c(=O)c1-c1nc2cc3c(cc2[nH]1)CN(CCN1CCC[C@H]1C)C3=O [drawing 354]
3. Cc1ccc(F)cc1C[C@H](C)Nc1cc[nH]c(=O)c1-c1nc2c(C)c3c(cc2[nH]1)CN(CCN1CCCC1)C3=O [drawing 351]

Result:
1: 7.00 to 8.00; 2: 7.00 to 8.00; 3: > 8.00

###

I'd be grateful if you could share measured IC50 for these entries.
target desc: IGF1R (Homo sapiens)
Construct: 6×His- or GST-tagged kinase domain fragments of the corresponding RTKs expressed in baculovirus system; host or cells: baculovirus system
Sequence (P08069 999-1274 limits assumed): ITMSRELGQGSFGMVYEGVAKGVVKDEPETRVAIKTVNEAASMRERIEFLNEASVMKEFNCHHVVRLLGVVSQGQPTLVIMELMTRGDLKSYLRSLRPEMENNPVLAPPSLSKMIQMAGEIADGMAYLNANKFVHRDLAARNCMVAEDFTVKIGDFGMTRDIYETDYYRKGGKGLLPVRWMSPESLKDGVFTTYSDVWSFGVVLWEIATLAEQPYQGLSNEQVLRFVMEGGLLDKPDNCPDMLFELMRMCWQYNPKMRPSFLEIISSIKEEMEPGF
method description: IGF1R kinase assay
Format: biochemical
study conditions: Table 1; read-out: IGF1R IC50

> print(dat)
                                   compound           target.desc        measured
1  COc1ccsc1C[C@H](C)Nc1cc[nH]c(=O)c1-c1nc2cc3c(cc2[nH]1)CN(CCCN1CCCC1)C3=O  IGF1R (Homo sapiens)  250 to 1000 nM
2  C[C@@H](Cc1ccco1)Nc1cc[nH]c(=O)c1-c1nc2cc3c(cc2[nH]1)CN(CCN1CCCC1)C3=O  IGF1R (Homo sapiens)  250 to 1000 nM
3  Cc1ccc(F)cc1C[C@H](C)Nc1cc[nH]c(=O)c1-c1nc2cc3c(cc2[nH]1)CN(CCN(C)C)C3=O [drawing 316]  IGF1R (Homo sapiens)   100 to 250 nM

Then there is this compound:
Problem: I have this compound here, `C[C@@H](Cc1cccs1)Nc1cc[nH]c(=O)c1-c1nc2cc3c(cc2[nH]1)C(=O)N(CCCCN1CCCC1)C3` , and I need its recorded IC50.
Result: > 1000 nM
